Kindly state duplex melting temperature for each of the entries shown.
- Assay protocol: duplex melting temperature (HRM, EvaGreen); higher = more stable duplex
- Condition context: duplex concentration 7.5 µM; backbone: PS-PO (listed strand fully phosphorothioate, complement phosphodiester)
One number for each entry, in °C.

Worked cases, duplex melting temperature given:
>>> recorded_measurement("GTCATTGTGCTTTTGC")
56.5
>>> recorded_measurement("ATAACTTACTCTCGCCT")
60.2
>>> recorded_measurement("CGTGCAGCACTACTTG")
63.5
>>> recorded_measurement("AATGTCGAACAGCAATT")
62.6
>>> recorded_measurement("TGTCGCACCCTACTA")
62.9

Give me duplex melting temperature for each of these sequences, listed below.
1. GGTTGCGGTGGCCAAC
2. CCGTTGCTGCTAGG
3. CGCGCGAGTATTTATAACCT
4. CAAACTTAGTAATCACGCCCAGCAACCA
5. CGGCGCGCTG
6. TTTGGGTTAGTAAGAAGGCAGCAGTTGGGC
7. ACTCGCTCTACCTTAAT
8. ACTGTATCGCCCTA

Given back:
59.9
63.1
66.4
74.2
66.2
76.3
59
60.1

Give me duplex melting temperature for each of these sequences, listed below.
1. TACTTCCAACGTAGG
2. CGTGTGGATAATTAGCT
3. GAACCGTTGATGATCTC

Given back:
1. 56.5
2. 59.8
3. 60.4
